Origin of values: the supplement of paper PMC10126150

Test system: ATP;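 further: ATP exposure 15 min at 22 °C before imaging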
Measurement Protocol: switch fluorescence ratio, 500 uM ATP over buffer (Cy3 cluster intensity, sum of 5 cycles each) (fold (ratio)); higher = stronger signal-on switching upon ATP binding; sequences stand for … in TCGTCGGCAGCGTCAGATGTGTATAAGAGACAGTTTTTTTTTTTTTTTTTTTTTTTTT…TC
Condition Set: aptamer strand: ATP DNA aptamer (quencher-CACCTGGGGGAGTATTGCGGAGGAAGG + anchor), 100 nM annealed; ATP concentration: 500 uM
# switch fluorescence ratio per entry
Respond numerically, and do not add a unit to the figure.

Example results:
   macromolecule_sequence  obs_value
0              ATACCATTTC       1.03
1              AGAAAGTCAA       1.02

Which value of switch fluorescence ratio has been reported for `GGGTCCATGA` in the records?
1.03

Now give it for `ACGACGTTGA` too.
1.07

Now give it for `TCAAAAGGGG` too.
1.06

Now give it for `GATGTTGTTT` too.
1.03

Now give it for `GCGGGGTGTG` too.
1.02

Now give it for `CTGAGAATGG` too.
1.02
